target: androgen receptor (Homo sapiens, UniProt P10275, T878A); construct: host or cells: LNCaP.FGC; test: Androgen receptor degradation assay using Western blot analysis; format: cell-based; settings: 24 h, read-out: Androgen Receptor Remaining (%), LNCaP.FGC cells, 100 nM, 24 hr, normalized to GAPDH, untreated cells = 100%
Sequence (P10275 whole entry T878A): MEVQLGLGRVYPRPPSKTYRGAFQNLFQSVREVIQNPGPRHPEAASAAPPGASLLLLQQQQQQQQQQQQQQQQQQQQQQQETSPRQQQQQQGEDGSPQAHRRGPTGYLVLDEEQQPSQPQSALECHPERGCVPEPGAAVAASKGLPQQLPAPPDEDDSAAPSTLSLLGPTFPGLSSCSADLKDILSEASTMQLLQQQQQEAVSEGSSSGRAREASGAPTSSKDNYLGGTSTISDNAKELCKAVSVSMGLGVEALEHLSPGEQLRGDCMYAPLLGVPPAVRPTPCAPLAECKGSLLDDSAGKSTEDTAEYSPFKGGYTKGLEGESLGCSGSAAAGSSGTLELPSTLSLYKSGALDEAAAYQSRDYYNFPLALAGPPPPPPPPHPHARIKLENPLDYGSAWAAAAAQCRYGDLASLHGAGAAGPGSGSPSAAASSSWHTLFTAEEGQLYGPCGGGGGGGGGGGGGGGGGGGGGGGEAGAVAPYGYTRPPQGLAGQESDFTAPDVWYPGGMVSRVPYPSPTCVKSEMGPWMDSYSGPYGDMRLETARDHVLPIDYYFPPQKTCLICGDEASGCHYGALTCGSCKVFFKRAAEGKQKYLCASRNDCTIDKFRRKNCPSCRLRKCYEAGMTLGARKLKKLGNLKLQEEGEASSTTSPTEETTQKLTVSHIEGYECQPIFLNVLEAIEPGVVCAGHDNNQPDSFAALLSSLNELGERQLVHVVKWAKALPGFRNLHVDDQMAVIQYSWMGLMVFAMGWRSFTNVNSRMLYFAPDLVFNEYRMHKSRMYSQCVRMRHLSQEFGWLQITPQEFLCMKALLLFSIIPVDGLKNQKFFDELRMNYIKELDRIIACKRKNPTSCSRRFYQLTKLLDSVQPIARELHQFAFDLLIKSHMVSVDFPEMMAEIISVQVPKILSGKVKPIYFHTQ
Sequence (Q96SW2 whole entry partner): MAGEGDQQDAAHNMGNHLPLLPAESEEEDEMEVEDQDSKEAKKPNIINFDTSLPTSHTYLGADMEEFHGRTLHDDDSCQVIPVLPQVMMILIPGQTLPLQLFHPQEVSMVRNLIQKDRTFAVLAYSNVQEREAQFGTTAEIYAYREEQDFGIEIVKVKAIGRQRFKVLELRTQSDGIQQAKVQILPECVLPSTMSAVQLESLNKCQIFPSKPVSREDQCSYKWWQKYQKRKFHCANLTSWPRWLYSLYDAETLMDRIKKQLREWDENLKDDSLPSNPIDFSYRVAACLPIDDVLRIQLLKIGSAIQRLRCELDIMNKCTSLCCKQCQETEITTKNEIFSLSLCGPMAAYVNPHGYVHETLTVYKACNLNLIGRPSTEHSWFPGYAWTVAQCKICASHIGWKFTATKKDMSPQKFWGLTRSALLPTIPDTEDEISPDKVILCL
In plain terms, low remaining activity at 0.1 µM, meaning strictly below 60%, gives yes, and everything else gives no.

stdin: Input CCn1c2c(c3ccc(OCCCN4C[C@H](C)N(c5ccc(C(=O)N[C@H]6CC[C@H](Oc7ccc(C#N)c(Cl)c7)CC6)nn5)C[C@H]4C)cc31)C(=O)N(C1CCC(=O)NC1=O)C2=O (some centres unmarked) [Compound 59] ; condition: remaining activity at 0.1 µM strictly below 60%. Does it hold?
stdout: no

stdin: Input CCn1c2c(c3ccc(OCCN4CCC5(CC4)CN(c4ccc(C(=O)N[C@H]6CC[C@H](Oc7ccc(C#N)c(Cl)c7)CC6)nn4)C5)cc31)C(=O)N(C1CCC(=O)NC1=O)C2=O (some centres unmarked) [Compound 81] ; condition: remaining activity at 0.1 µM strictly below 60%. Does it hold?
stdout: yes

stdin: Input CCn1c2c(c3ccc(OCCCN4CCN(c5ccc(N6C(=S)N(c7ccc(C#N)c(C(F)(F)F)c7)C(=O)C6(C)C)cc5)CC4)cc31)C(=O)N(C1CCC(=O)NC1=O)C2=O (centres unmarked) [Compound 117] ; condition: remaining activity at 0.1 µM strictly below 60%. Does it hold?
stdout: yes

stdin: Input CCn1c2c(c3ccc(OCCCN4CCN(c5ccc(C(=O)N[C@H]6CC[C@H](Oc7ccc(C#N)c(Cl)c7)CC6)nn5)[C@H](C)C4)cc31)C(=O)N(C1CCC(=O)NC1=O)C2=O (some centres unmarked) [Compound 98] ; condition: remaining activity at 0.1 µM strictly below 60%. Does it hold?
stdout: yes

stdin: Input CN(c1ccc(C#N)c(Cl)c1)[C@H]1CC[C@H](NC(=O)c2ccc(N3CCN(CCCOc4ccc5c6c(n(CC(F)F)c5c4)C(=O)N(C4CCC(=O)NC4=O)C6=O)CC3)nn2)CC1 (some centres unmarked) [Compound 83] ; condition: remaining activity at 0.1 µM strictly below 60%. Does it hold?
stdout: yes

---

target: androgen receptor (Homo sapiens, UniProt P10275, T878A); construct: host or cells: LNCaP.FGC; assay: Androgen receptor degradation assay using Western blot analysis; assay type: cell-based; settings: LNCaP.FGC cells, serial 10x dilutions from 100 nM; read-out: AR DC50 (concentration needed for 50% AR degradation)
Exercise: for every item that follows, state its recorded DC50.

stdin: Which DC50 is reported with androgen receptor (Homo sapiens, UniProt P10275, T878A) for this entry: Cn1c2c(c3ccc(OCCOC4CCN(c5ccc(C(=O)N[C@H]6CC[C@H](Oc7ccc(C#N)c(Cl)c7)CC6)nn5)CC4)cc31)C(=O)N(C1CCC(=O)NC1=O)C2=O (stereo partly drawn) ?
stdout: 10 to 25 nM

stdin: Which DC50 is reported with androgen receptor (Homo sapiens, UniProt P10275, T878A) for this entry: N#Cc1ccc(O[C@H]2CC[C@H](NC(=O)c3ccc(N4CCN(CCCOc5ccc6c7c([nH]c6c5)C(=O)N(C5CCC(=O)NC5=O)C7=O)CC4)nn3)CC2)cc1Cl (stereo partly drawn) ?
stdout: 25 to 100 nM

stdin: Which DC50 is reported with androgen receptor (Homo sapiens, UniProt P10275, T878A) for this entry: Cn1c2c(c3ccc(OC4CCN(CC5CCN(c6ccc(C(=O)N[C@H]7CC[C@H](Oc8ccc(C#N)c(Cl)c8)CC7)nn6)CC5)CC4)cc31)C(=O)N(C1CCC(=O)NC1=O)C2=O (stereo partly drawn) ?
stdout: 10 to 25 nM

stdin: Which DC50 is reported with androgen receptor (Homo sapiens, UniProt P10275, T878A) for this entry: Cn1c2c(c3ccc(OCCN4CCN(c5ccc(C(=O)N[C@H]6C(C)(C)[C@H](Oc7ccc(C#N)c(Cl)c7)C6(C)C)cn5)CC4)cc31)C(=O)N(C1CCC(=O)NC1=O)C2=O (stereo partly drawn) ?
stdout: 25 to 100 nM

stdin: Which DC50 is reported with androgen receptor (Homo sapiens, UniProt P10275, T878A) for this entry: Cn1c2c(c3ccc(OCCOC4CC5(CCN(c6ccc(C(=O)N[C@H]7CC[C@H](Oc8ccc(C#N)c(Cl)c8)CC7)nn6)C5)C4)cc31)C(=O)N(C1CCC(=O)NC1=O)C2=O (stereo partly drawn) ?
stdout: 25 to 100 nM

stdin: Which DC50 is reported with androgen receptor (Homo sapiens, UniProt P10275, T878A) for this entry: Cn1c2c(c3ccc(OCCN4CCN(c5ccc(C(=O)N[C@H]6CC[C@H](Oc7ccc(C#N)c(Cl)c7)CC6)nn5)CC4)cc31)C(=O)N(C1CCC(=O)NC1=O)C2=O (stereo partly drawn) ?
stdout: 25 to 100 nM

stdin: Which DC50 is reported with androgen receptor (Homo sapiens, UniProt P10275, T878A) for this entry: Cn1c2c(c3ccc(OCCN4CCC5(CC4)CCN(c4ccc(C(=O)N[C@H]6CC[C@H](Oc7ccc(C#N)c(Cl)c7)CC6)nn4)CC5)cc31)C(=O)N(C1CCC(=O)NC1=O)C2=O (stereo partly drawn) ?
stdout: 10 to 25 nM

stdin: Which DC50 is reported with androgen receptor (Homo sapiens, UniProt P10275, T878A) for this entry: Cn1c2c(c3ccc(OCCCN4CCN(c5ccc(C(=O)N[C@H]6CC[C@H](Oc7ccc(C#N)c(Cl)c7)CC6)nn5)CC4)cc31)C(=O)N(C1CCC(=O)NC1=O)C2=O (stereo partly drawn) [Compound 39] ?
stdout: 10 to 25 nM

stdin: Which DC50 is reported with androgen receptor (Homo sapiens, UniProt P10275, T878A) for this entry: Cn1c2c(c3ccc(OCCCOC4CC5(CCN(c6ccc(C(=O)N[C@H]7CC[C@H](Oc8ccc(C#N)c(Cl)c8)CC7)nn6)C5)C4)cc31)C(=O)N(C1CCC(=O)NC1=O)C2=O (stereo partly drawn) ?
stdout: 25 to 100 nM
